We begin with a simple list: items and their reported pKi.
target: Delta-type opioid receptor (Homo sapiens, UniProt P41143); test: Binding affinity against cloned human Opioid receptor delta 1 transfected into chinese hamster ovary cells using [3H]Cl-DPDPE as radioligand
Sequence (P41143 whole entry): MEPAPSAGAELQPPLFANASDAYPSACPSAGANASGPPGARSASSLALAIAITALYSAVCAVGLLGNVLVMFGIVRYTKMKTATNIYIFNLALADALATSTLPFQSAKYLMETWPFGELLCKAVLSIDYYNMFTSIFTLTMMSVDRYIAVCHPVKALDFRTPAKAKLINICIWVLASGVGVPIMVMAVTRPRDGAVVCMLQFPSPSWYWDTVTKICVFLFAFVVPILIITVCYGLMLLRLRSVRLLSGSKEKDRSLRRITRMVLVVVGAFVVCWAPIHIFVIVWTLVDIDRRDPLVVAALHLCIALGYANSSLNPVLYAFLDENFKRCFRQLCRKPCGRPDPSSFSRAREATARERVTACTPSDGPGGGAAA
pKi: −log10 of the molar value.
experimentalEndpoint: pKi

querySmiles: N/C(=N/Cc1ccc(Cl)cc1)Nc1ccc2[nH]c3c(c2c1)C[C@@]1(O)[C@H]2Cc4ccc(O)c5c4[C@@]1(CCN2CC1CC1)[C@H]3O5
readoutNumber: 7.07
//
querySmiles: N/C(=N/Cc1ccc([N+](=O)[O-])cc1)Nc1ccc2[nH]c3c(c2c1)C[C@@]1(O)[C@H]2Cc4ccc(O)c5c4[C@@]1(CCN2CC1CC1)[C@H]3O5
readoutNumber: 7.02
//
querySmiles: N/C(=N\CCc1ccc2[nH]c3c(c2c1)C[C@@]1(O)[C@H]2Cc4ccc(O)c5c4[C@@]1(CCN2CC1CC1)[C@H]3O5)NCc1ccc(N)cc1
readoutNumber: 8.30

====

target: Delta-type opioid receptor (Homo sapiens); experiment: Binding affinity against cloned human Opioid receptor delta 1 transfected into chinese hamster ovary cells using [3H]Cl-DPDPE as radioligand
pKi: −log10 of the molar value.
# pKi listing for each entry below
experimentalEndpoint: pKi

querySmiles: CCCC/N=C(\NCCCC)NCCc1ccc2[nH]c3c(c2c1)C[C@@]1(O)[C@H]2Cc4ccc(O)c5c4[C@@]1(CCN2CC1CC1)[C@H]3O5
readoutNumber: 8.17
--
querySmiles: N=C(N)NCCc1ccc2[nH]c3c(c2c1)C[C@@]1(O)[C@H]2Cc4ccc(O)c5c4[C@@]1(CCN2CC1CC1)[C@H]3O5
readoutNumber: 8.31
--
querySmiles: N/C(=N/Cc1ccccc1)Nc1ccc2[nH]c3c(c2c1)C[C@@]1(O)[C@H]2Cc4ccc(O)c5c4[C@@]1(CCN2CC1CC1)[C@H]3O5
readoutNumber: 7.57
--
querySmiles: Oc1ccc2c3c1O[C@H]1c4[nH]c5ccc(N/C(=N/CC6CC6)NCc6ccccc6)cc5c4C[C@@]4(O)[C@@H](C2)N(CC2CC2)CC[C@]314
readoutNumber: 7.74
--
querySmiles: N/C(=N\CCc1ccc2[nH]c3c(c2c1)C[C@@]1(O)[C@H]2Cc4ccc(O)c5c4[C@@]1(CCN2CC1CC1)[C@H]3O5)NCc1ccccc1
readoutNumber: 8.14
--
querySmiles: N/C(=N/Cc1cccc(O)c1)Nc1ccc2[nH]c3c(c2c1)C[C@@]1(O)[C@H]2Cc4ccc(O)c5c4[C@@]1(CCN2CC1CC1)[C@H]3O5
readoutNumber: 7.75
--
querySmiles: CCC/N=C(\NCCC)Nc1ccc2[nH]c3c(c2c1)C[C@@]1(O)[C@H]2Cc4ccc(O)c5c4[C@@]1(CCN2CC1CC1)[C@H]3O5
readoutNumber: 8.07
--
querySmiles: CCCC/N=C(\NCCCC)Nc1ccc2[nH]c3c(c2c1)C[C@@]1(O)[C@H]2Cc4ccc(O)c5c4[C@@]1(CCN2CC1CC1)[C@H]3O5
readoutNumber: 7.82

====

Listing of recorded Ratio by entry.
target: Opioid receptors; delta & kappa (Homo sapiens) (UniProt P41145+P41143); test: Ratio of (Ki) delta-opioid receptor to that of (Ki) kappa-opioid receptor; assay type: protein assay
Sequence (P41143 whole entry, looked up): as the sequence (P41143 whole entry) above
Sequence (P41145 whole entry, looked up): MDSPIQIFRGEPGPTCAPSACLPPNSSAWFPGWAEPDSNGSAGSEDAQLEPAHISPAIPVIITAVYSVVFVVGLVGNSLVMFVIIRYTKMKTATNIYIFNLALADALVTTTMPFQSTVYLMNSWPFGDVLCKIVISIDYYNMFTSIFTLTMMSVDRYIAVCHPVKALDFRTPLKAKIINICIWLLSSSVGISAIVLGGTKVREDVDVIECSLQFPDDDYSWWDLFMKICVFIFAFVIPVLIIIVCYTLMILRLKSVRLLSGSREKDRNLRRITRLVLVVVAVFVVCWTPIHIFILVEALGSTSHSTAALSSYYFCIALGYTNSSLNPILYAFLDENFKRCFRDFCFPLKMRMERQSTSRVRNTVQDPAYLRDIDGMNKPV

querySmiles: N/C(=N\CCc1ccc2[nH]c3c(c2c1)C[C@@]1(O)[C@H]2Cc4ccc(O)c5c4[C@@]1(CCN2CC1CC1)[C@H]3O5)NCc1ccccc1
Ratio: 5

querySmiles: CCC/N=C(\NCCC)Nc1ccc2[nH]c3c(c2c1)C[C@@]1(O)[C@H]2Cc4ccc(O)c5c4[C@@]1(CCN2CC1CC1)[C@H]3O5
Ratio: 3

querySmiles: N/C(=N\CCc1ccc2[nH]c3c(c2c1)C[C@@]1(O)[C@H]2Cc4ccc(O)c5c4[C@@]1(CCN2CC1CC1)[C@H]3O5)NCc1ccc(N)cc1
Ratio: 5

querySmiles: N/C(=N/Cc1ccc(O)cc1)Nc1ccc2[nH]c3c(c2c1)C[C@@]1(O)[C@H]2Cc4ccc(O)c5c4[C@@]1(CCN2CC1CC1)[C@H]3O5
Ratio: 13

querySmiles: N/C(=N/Cc1ccc(N)cc1)Nc1ccc2[nH]c3c(c2c1)C[C@@]1(O)[C@H]2Cc4ccc(O)c5c4[C@@]1(CCN2CC1CC1)[C@H]3O5
Ratio: 68

====

target: Opioid receptors; delta & kappa (Homo sapiens) (UniProt P41145+P41143); assay: Ratio of (Ke) delta-opioid receptor to that of (Ke) kappa-opioid receptor; assay type: protein assay
Assign labels as follows, please: Condition met for Ratio below 9; Condition not met for Ratio equal to or exceeding 9.

querySmiles: N/C(=N\CCc1ccc2[nH]c3c(c2c1)C[C@@]1(O)[C@H]2Cc4ccc(O)c5c4[C@@]1(CCN2CC1CC1)[C@H]3O5)NCc1ccc(Cl)cc1
measuredTarget: Opioid receptors; delta & kappa (Homo sapiens) (UniProt P41145+P41143)
discreteLabel: Condition met
--
querySmiles: N/C(=N/Cc1ccc(Cl)cc1)Nc1ccc2[nH]c3c(c2c1)C[C@@]1(O)[C@H]2Cc4ccc(O)c5c4[C@@]1(CCN2CC1CC1)[C@H]3O5
measuredTarget: Opioid receptors; delta & kappa (Homo sapiens) (UniProt P41145+P41143)
discreteLabel: Condition not met
--
querySmiles: CCCN/C(=N\CC1CC1)Nc1ccc2[nH]c3c(c2c1)C[C@@]1(O)[C@H]2Cc4ccc(O)c5c4[C@@]1(CCN2CC1CC1)[C@H]3O5
measuredTarget: Opioid receptors; delta & kappa (Homo sapiens) (UniProt P41145+P41143)
discreteLabel: Condition not met
--
querySmiles: CCCC/N=C(\NCCCC)NCCc1ccc2[nH]c3c(c2c1)C[C@@]1(O)[C@H]2Cc4ccc(O)c5c4[C@@]1(CCN2CC1CC1)[C@H]3O5
measuredTarget: Opioid receptors; delta & kappa (Homo sapiens) (UniProt P41145+P41143)
discreteLabel: Condition met
--
querySmiles: N/C(=N/Cc1ccc([N+](=O)[O-])cc1)Nc1ccc2[nH]c3c(c2c1)C[C@@]1(O)[C@H]2Cc4ccc(O)c5c4[C@@]1(CCN2CC1CC1)[C@H]3O5
measuredTarget: Opioid receptors; delta & kappa (Homo sapiens) (UniProt P41145+P41143)
discreteLabel: Condition not met

====

molecular target: Delta-type opioid receptor (Homo sapiens, UniProt P41143); test: Binding affinity against cloned human Opioid receptor delta 1 transfected into chinese hamster ovary cells using [3H]Cl-DPDPE as radioligand
pKi: −log10 of the molar value.
experimentalEndpoint: pKi

querySmiles: N=C(N)NCc1ccc2[nH]c3c(c2c1)C[C@@]1(O)[C@H]2Cc4ccc(O)c5c4[C@@]1(CCN2CC1CC1)[C@H]3O5
measuredTarget: Delta-type opioid receptor (Homo sapiens, UniProt P41143)
readoutNumber: 7.15
--
querySmiles: N/C(=N/Cc1ccc(N)cc1)Nc1ccc2[nH]c3c(c2c1)C[C@@]1(O)[C@H]2Cc4ccc(O)c5c4[C@@]1(CCN2CC1CC1)[C@H]3O5
measuredTarget: Delta-type opioid receptor (Homo sapiens, UniProt P41143)
readoutNumber: 7.62
--
querySmiles: N/C(=N\CCc1ccc2[nH]c3c(c2c1)C[C@@]1(O)[C@H]2Cc4ccc(O)c5c4[C@@]1(CCN2CC1CC1)[C@H]3O5)NCc1ccc(Cl)cc1
measuredTarget: Delta-type opioid receptor (Homo sapiens, UniProt P41143)
readoutNumber: 7.72
--
querySmiles: CCCN/C(=N\CC1CC1)Nc1ccc2[nH]c3c(c2c1)C[C@@]1(O)[C@H]2Cc4ccc(O)c5c4[C@@]1(CCN2CC1CC1)[C@H]3O5
measuredTarget: Delta-type opioid receptor (Homo sapiens, UniProt P41143)
readoutNumber: 7.81
--
querySmiles: N/C(=N/Cc1ccc(O)cc1)Nc1ccc2[nH]c3c(c2c1)C[C@@]1(O)[C@H]2Cc4ccc(O)c5c4[C@@]1(CCN2CC1CC1)[C@H]3O5
measuredTarget: Delta-type opioid receptor (Homo sapiens, UniProt P41143)
readoutNumber: 7.38
--
querySmiles: N/C(=N\CCc1ccc2[nH]c3c(c2c1)C[C@@]1(O)[C@H]2Cc4ccc(O)c5c4[C@@]1(CCN2CC1CC1)[C@H]3O5)NCc1ccc([N+](=O)[O-])cc1
measuredTarget: Delta-type opioid receptor (Homo sapiens, UniProt P41143)
readoutNumber: 7.93

====

target: Opioid receptors; mu & kappa (Homo sapiens) (UniProt P41145+P35372); test: Ratio of (Ke) mu-opioid receptor to that of (Ke) kappa-opioid receptor; format: protein assay
Sequence (P35372 whole entry, looked up, one chain of several): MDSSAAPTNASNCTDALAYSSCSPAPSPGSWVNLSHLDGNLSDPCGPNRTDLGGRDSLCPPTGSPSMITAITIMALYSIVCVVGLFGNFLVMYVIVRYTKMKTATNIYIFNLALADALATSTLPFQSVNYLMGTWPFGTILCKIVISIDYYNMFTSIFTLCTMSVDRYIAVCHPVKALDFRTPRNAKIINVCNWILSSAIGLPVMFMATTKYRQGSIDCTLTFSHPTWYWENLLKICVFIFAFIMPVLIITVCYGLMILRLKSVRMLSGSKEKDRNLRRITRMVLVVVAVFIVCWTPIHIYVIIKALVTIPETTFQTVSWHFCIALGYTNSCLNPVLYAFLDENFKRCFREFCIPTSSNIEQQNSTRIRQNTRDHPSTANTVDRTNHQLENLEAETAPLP
experimentalEndpoint: Ratio

querySmiles: N/C(=N\CCc1ccc2[nH]c3c(c2c1)C[C@@]1(O)[C@H]2Cc4ccc(O)c5c4[C@@]1(CCN2CC1CC1)[C@H]3O5)NCc1ccc(N)cc1
experimentalEndpoint: Ratio
readoutNumber: 6
//
querySmiles: N/C(=N/Cc1ccc(O)cc1)Nc1ccc2[nH]c3c(c2c1)C[C@@]1(O)[C@H]2Cc4ccc(O)c5c4[C@@]1(CCN2CC1CC1)[C@H]3O5
experimentalEndpoint: Ratio
readoutNumber: 127
//
querySmiles: N/C(=N\CCc1ccc2[nH]c3c(c2c1)C[C@@]1(O)[C@H]2Cc4ccc(O)c5c4[C@@]1(CCN2CC1CC1)[C@H]3O5)NCc1ccc([N+](=O)[O-])cc1
experimentalEndpoint: Ratio
readoutNumber: 13
//
querySmiles: N/C(=N/Cc1ccc([N+](=O)[O-])cc1)Nc1ccc2[nH]c3c(c2c1)C[C@@]1(O)[C@H]2Cc4ccc(O)c5c4[C@@]1(CCN2CC1CC1)[C@H]3O5
experimentalEndpoint: Ratio
readoutNumber: 21
//
querySmiles: CCCC/N=C(\NCCCC)NCCc1ccc2[nH]c3c(c2c1)C[C@@]1(O)[C@H]2Cc4ccc(O)c5c4[C@@]1(CCN2CC1CC1)[C@H]3O5
experimentalEndpoint: Ratio
readoutNumber: 12
//
querySmiles: N/C(=N\CCc1ccc2[nH]c3c(c2c1)C[C@@]1(O)[C@H]2Cc4ccc(O)c5c4[C@@]1(CCN2CC1CC1)[C@H]3O5)NCc1ccccc1
experimentalEndpoint: Ratio
readoutNumber: 23
